- Test system: rodent lifetime carcinogenesis bioassay, tumor incidence TD50
- method-summary: carcinogenic potency in animals, long-term in vivo studies, CPDB compilation (AID 1745844)
- measurement-context: mouse; strain B6C3F1; males; inhaled; site: all sites; lesion: malignant lymphoma, NOS; dosed 60 weeks; study length 60 weeks
parameter: TD50

Just so you know, measured TD50 for `C=CC=C` came out at 105 mg/kg/day

====

- Test system: rodent lifetime carcinogenesis bioassay, tumor incidence TD50
- method-summary: carcinogenic potency in animals, long-term in vivo studies, CPDB compilation (AID 1745844)
- measurement-context: rat; strain Sprague-Dawley; females; in drinking water; site: any site (literature study); lesion: several types; types named in the paper; dosed 104 weeks; study length 120 weeks
parameter: TD50 (mg/kg/day)
Field: numeric (mg/kg/day). Do not append units.

Just so you know, measured TD50 for `CCO` came out at 5870
